Origin of measurements: patent US20240425524A1

- target_desc: RIPK1 (Homo sapiens (Human))
- assay_details: RIPK1-ADP-Glo Enzymatic Assay
- cond: recombinant GST-RIPK1 kinase domain (residues 1-327), 25 nM, ten-point titration, 30 minutes pre-incubation
attribute_measured: EC50 (nM)

O=C1N2[C@H](c3cc(F)cc(F)c3)CCN2CC12CCN(c1nc3ccccc3o1)CC2 [Example 1.80] ... 50
Cc1ccc(N2CCC3(CC2)CN2CC[C@@H](c4cc(F)cc(F)c4)N2C3=O)n2nccc12 [Example 9.1] ... 17
COc1nc(N2CCC3(CC2)CN2CC[C@@H](c4cc(F)cc(F)c4)N2C3=O)ncc1C [Example 1.23] ... 68
Cn1cc(-c2cc(N3CCC4(CC3)CN3CC[C@@H](c5cc(F)cc(F)c5)N3C4=O)ncn2)cn1 [Example 1.93] ... 17

(a) O=C1N2[C@H](c3cc(F)cc(F)c3)CCN2CC12CCN(c1nccn3ncnc13)CC2 [Example 1.79]
(b) N#Cc1cc(F)cc(C(=O)N2CCC3(CC2)CN2CC[C@@H](c4cc(F)cc(F)c4)N2C3=O)c1 [Example 4.7]
(c) O=C1N2[C@H](c3cc(F)cc(F)c3)CCN2CC12CCN(c1noc3ccccc13)CC2 [Example 1.81]
# rank by EC50, ascending (min first) Please list each label once, in the requested order.
a, b, c
(a: 30 nM, b: 211 nM, c: 366 nM)

(I) Cc1cc(-c2cncs2)nc(N2CCC3(CC2)CN2CC[C@@H](c4cc(F)cc(F)c4)N2C3=O)c1 [Example 2.23]
(II) O=C1N2[C@H](c3cc(F)cc(F)c3)CCN2CC12CCN(c1cnc(-c3ccc(Cl)cc3)cn1)CC2 [Example 2.18]
Between I and II , which one shows the smaller EC50 number? Output the label that corresponds to your choice.
I
(I: 48 nM, II: 152 nM)

(P) O=C1N2[C@H](c3cc(F)cc(F)c3)CCN2CC12CCN(c1ccc(C(F)(F)F)cn1)CC2 [Example 1.39]
(Q) O=C1N2[C@H](c3cc(F)cc(F)c3)CCN2CC12CCN(c1ccc(F)cc1)CC2 [Example 10.3]
Endpoint returns the identifier whose EC50 is numerically larger, either P or Q . Output the label that corresponds to your choice.
Q
(Q: 122 nM, P: 77 nM)

###

- target_desc: RIPK1 (Homo sapiens (Human), UniProt Q13546)
- Sequence (Q13546 1-327): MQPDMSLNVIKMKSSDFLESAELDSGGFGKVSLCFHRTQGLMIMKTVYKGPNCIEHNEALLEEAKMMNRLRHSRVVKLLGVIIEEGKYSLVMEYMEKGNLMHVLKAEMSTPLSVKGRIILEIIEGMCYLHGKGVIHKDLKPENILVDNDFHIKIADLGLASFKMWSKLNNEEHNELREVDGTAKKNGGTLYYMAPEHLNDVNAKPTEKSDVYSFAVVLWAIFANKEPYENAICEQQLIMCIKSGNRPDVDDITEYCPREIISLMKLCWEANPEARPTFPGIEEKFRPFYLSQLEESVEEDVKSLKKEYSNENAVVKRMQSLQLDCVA
- assay_details: RIPK1-ADP-Glo Enzymatic Assay
- Format: biochemical
- cond: recombinant GST-RIPK1 kinase domain (residues 1-327), 25 nM, ten-point titration, 30 minutes pre-incubation
pEC50: −log10 of the molar value.
attribute_measured: pEC50

(a) Cc1cc(N2CCC3(CC2)CN2CC[C@@H](c4cc(F)cc(F)c4)N2C3=O)nc(C#N)n1
(b) COc1cc(N2CCC3(CC2)CN2CC[C@@H](c4cc(F)cc(F)c4)N2C3=O)ncn1
(c) O=C1N2[C@H](c3cc(F)cc(F)c3)CCN2CC12CCN(c1cccc(CO)n1)CC2
(d) Cc1nc(N2CCC3(CC2)CN2CC[C@@H](c4cc(F)cc(F)c4)N2C3=O)ncc1OC(F)F
Sort the listed entries by pEC50, smallest first. Please list each label once, in the requested order.
c, a, b, d
(c: 6.20, a: 7.17, b: 7.55, d: 7.82)
